System: LTB4 production in murine blood (LTA4H)
assay-summary: LTB4 production by calcium ionophore-stimulated murine blood for LTA4H inhibitor activity
Assay type: cell-based, CD-1 mice
settings: Mus musculus; murine blood diluted 1 in 15, A23187 stimulated; single determination or average; mark after value = form tested: ′ free base, ″ hydrochloride, ^ formate; read-out: IC50
pIC50: −log10 of the molar value. Counter-ions that a name gives are not always drawn.
assay-readout: pIC50

* CCN(CC)Cc1coc2cc(Oc3nc4ncccc4s3)ccc12 | 7.70
* c1ccc2sc(Oc3ccc4c(CN5CCCCC5)c[nH]c4c3)nc2c1 | 7.11
* c1cnc2nc(Oc3ccc4c(CN5CCC(N6CCCC6)CC5)coc4c3)sc2c1 [Example 283, formate] | 6.89
* O=C(O)C1CCN(Cc2c[nH]c3cc(Oc4nc5ccccc5s4)ccc23)CC1 | 5.87
* O=C(C1CCN(Cc2c[nH]c3cc(Oc4nc5ccccc5s4)ccc23)CC1)N1CCCCC1 | 6.47

I: CC(=O)N1C[C@H]2C[C@@H]1CN2C(=O)c1cc2cc(Oc3nc4ncccc4s3)ccc2o1
II: NC(=O)N1CCN(Cc2coc3cc(Oc4nc5ncccc5s4)ccc23)CC1
III: CCOC(=O)C1CCN(Cc2c[nH]c3cc(Oc4nc5ccccc5s4)ccc23)CC1
IV: c1cnc2nc(Oc3ccc4c(CCN5CCOCC5)coc4c3)sc2c1
Challenge: Give the ascending ranking of the items by reported pIC50. Thanks in advance for listing the labels in the requested order.
Response given: III, IV, I, II

I: O=C(O)C1CCN(Cc2coc3cc(Oc4nc5ncccc5s4)ccc23)CC1
II: CC(=O)N1CC2CN(Cc3cc4cc(Oc5nc6ncccc6s5)ccc4o3)CC2C1 (centres unmarked)
Challenge: Returns: the label, I or II , whose recorded pIC50 is the lower number. Identify your pick by its label.
Response given: I
